Taken from paper PMC9229255.

Recorded inhibition at 20 µM, one value per entry.
Biological target: EGFR (Homo sapiens, UniProt P00533)
Sequence (P00533 25-1210): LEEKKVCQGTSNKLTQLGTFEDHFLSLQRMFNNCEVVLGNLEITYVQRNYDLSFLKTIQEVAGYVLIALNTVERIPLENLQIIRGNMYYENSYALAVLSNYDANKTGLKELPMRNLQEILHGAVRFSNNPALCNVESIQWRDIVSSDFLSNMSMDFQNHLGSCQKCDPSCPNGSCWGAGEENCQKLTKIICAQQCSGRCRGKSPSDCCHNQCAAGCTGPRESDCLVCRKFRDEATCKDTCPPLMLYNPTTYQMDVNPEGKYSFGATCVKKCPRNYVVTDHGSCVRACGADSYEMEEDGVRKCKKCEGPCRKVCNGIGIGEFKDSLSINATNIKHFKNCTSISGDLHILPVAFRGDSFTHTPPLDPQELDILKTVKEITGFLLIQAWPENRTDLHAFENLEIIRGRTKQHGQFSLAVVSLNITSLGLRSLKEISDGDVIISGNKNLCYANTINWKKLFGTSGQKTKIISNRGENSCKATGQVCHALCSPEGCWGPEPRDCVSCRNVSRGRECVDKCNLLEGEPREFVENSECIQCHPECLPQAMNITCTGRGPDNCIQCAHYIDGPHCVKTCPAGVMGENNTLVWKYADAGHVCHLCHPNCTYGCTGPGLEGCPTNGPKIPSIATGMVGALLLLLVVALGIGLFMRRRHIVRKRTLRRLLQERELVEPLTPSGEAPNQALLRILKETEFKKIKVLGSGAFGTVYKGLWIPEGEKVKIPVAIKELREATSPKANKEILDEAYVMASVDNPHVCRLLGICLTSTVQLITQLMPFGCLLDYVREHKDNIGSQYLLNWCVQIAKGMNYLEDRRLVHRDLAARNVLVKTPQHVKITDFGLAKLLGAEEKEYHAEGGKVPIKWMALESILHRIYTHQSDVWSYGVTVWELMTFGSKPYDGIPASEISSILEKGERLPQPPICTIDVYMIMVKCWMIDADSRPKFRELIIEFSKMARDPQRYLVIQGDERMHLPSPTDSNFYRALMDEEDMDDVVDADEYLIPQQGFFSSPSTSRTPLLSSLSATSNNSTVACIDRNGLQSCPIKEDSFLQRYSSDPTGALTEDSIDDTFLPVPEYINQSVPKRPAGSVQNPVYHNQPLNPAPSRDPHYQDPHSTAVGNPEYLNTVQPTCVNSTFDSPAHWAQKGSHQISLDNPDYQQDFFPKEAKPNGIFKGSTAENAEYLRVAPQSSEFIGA
Assay: EGFR activity assay (kinase inhibition)
Format: biochemical
Settings: concentration 20000 nM; read-out: EGFR inhibitory data, Mean (percentage of inhibition)
Procedure: Six compounds were screened on EGFRs using staurosporine obtained from MedChemExpress (Cat. No. HY-15141; Lot. No. 41248) as the reference compound. In the bioassay for the EGFRs, testing kinases were performed in 1× kinase base buffer containing 50 mM HEPES (pH 7.5) and 0.0015% Brij-35, and stop buffer containing 100 mM HEPES (pH 7.5), 0.0015% Brij-35, 0.2% Coating Reagent #3, and 50 mM EDTA. […]
The answer is to be given in %; state only the numeric part.

Under EGFR (Homo sapiens, UniProt P00533): inhibition at 20 µM value of `C=C1CC[C@H](C(C)C)[C@@H]2[C@H]1[C@@H]1O[C@H]2[C@](C)(OC(=O)CCC)CC[C@H](O)C(=C)[C@H]1O` ? -3.8

# query: inhibition at 20 µM | item C=C1C(OO)CCC(C)(OC(=O)CCC)C2OC(C1OC(C)=O)C1C(=C)C(O)CC(C(C)C)C12 (stereo not drawn) | system: EGFR (Homo sapiens, UniProt P00533) -12.5

Form field - read-out: inhibition at 20 µM; system: EGFR (Homo sapiens, UniProt P00533); submitted item: `C=C1CC[C@H](C(C)C)[C@@H]2[C@H]1[C@@H]1O[C@H]2[C@](C)(OC(=O)CCC)CC[C@H](OC)[C@@](C)(O)[C@H]1O` -7.5

Request body: readout inhibition at 20 µM, system EGFR (Homo sapiens, UniProt P00533), query `C=C1CC[C@H](C(C)C)[C@@H]2[C@H]1[C@@H]1O[C@H]2[C@](C)(OC(=O)CCC)CC[C@H](O)C(=C)[C@H]1OC(=O)CCC` . Return the value. -3.4

API: value(readout=inhibition at 20 µM, system=EGFR (Homo sapiens, UniProt P00533)) for record `C=C1CC[C@H](C(C)C)[C@@H]2[C@H]1[C@H]1C[C@](C)(O)[C@@H](O)CC[C@@](C)(OC(=O)CCC)[C@@H]2O1` -4.9

Item: C=C1C(O)CCC(C)(OC(=O)CCC)C2OC(C1OC(C)=O)C1C(=C)C(O)CC(C(C)C)C12 (stereo not drawn) Test system: EGFR (Homo sapiens, UniProt P00533) Read-out: inhibition at 20 µM Value: ? -9.9
